meta.source: the MegaScale stability set (Tsuboyama et al. 2023)

Listed here: items and their measured folding stability dG.
B1: EHEE_rd4_0726 (parent)
chain: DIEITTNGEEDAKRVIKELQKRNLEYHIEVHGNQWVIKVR

Variants of: B1
Assay: folding stability dG (cDNA display proteolysis); higher = more stable
Details: PBS, room temperature
Write the figure, then the unit, nothing else.

Solved cases below.
>>> experimental_result("DIEITTNGEEDAKRKIKELQKRNLEYHIEVHGNQWVIKVR")
"1.2 kcal/mol"
>>> experimental_result("GIEITTNGEEDAKRVIKELQKRNLEYHIEVHGNQWVIKVR")
"2.43 kcal/mol"
>>> experimental_result("DIEITTNGEEDAKRVIKELQKRNLEYHIEVMGNQWVIKVR")
"2.32 kcal/mol"
>>> experimental_result("DIEITTNGEEDAKRVIKELQKRNLEYWIEVHGNQWVIKVR")
"2.69 kcal/mol"
>>> experimental_result("DIEITTNGEEDAKHVIKELQKRNLEYHIEVHGNQWVIKVR")
"1.83 kcal/mol"
>>> experimental_result("DIEITTNGEEDAKRVIKELQKRNLEYHWEVHGNQWVIKVR")
"1.24 kcal/mol"

Please report the recorded folding stability dG for `DIEITTNGEEDAKRVIKELQKRNLEYHIKVHGNQWVIKVR` .
1.66 kcal/mol

Would you mind telling me what folding stability dG value was observed for `DIEITTNGEEDAKRVIKELQKRNLEYHIEFHGNQWVIKVR` ?
2.06 kcal/mol

Suppose we examine the variant `DIEITTNGEEDAKRVIKELMKRNLEYHIEVHGNQWVIKVR` ; what folding stability dG value has been reported?
2.4 kcal/mol

Sample `DIEITTNGEEEAKRVIKELQKRNLEYHIEVHGNQWVIKVR` — what was its folding stability dG?
2.95 kcal/mol

# folding stability dG lookup, item `DIEITTNGEEDAKRVIKELQKRDLEYHIEVHGNQWVIKVR`
1.72 kcal/mol

Data request, read-out folding stability dG, for `DIEITTNGEEDAKRVIKELQLRNLEYHIEVHGNQWVIKVR`
2.65 kcal/mol

Need folding stability dG of `DIEITTNGEEDAKRVIKELQKRNLEYHIEVHGYQWVIKVR` , thanks.
1.98 kcal/mol

Quick check: folding stability dG of `DIEITTNGEVDAKRVIKELQKRNLEYHIEVHGNQWVIKVR` ?
2.02 kcal/mol

Would you kindly share the measured folding stability dG for `DIEDTTNGEEDAKRVIKELQKRNLEYHIEVHGNQWVIKVR` ?
-0.582 kcal/mol

Which folding stability dG reading was recorded for the variant `DIEITTNGEEDAKRVIKTLQKRNLEYHIEVHGNQWVIKVR` ?
1.95 kcal/mol
